// data source = PubChem BioAssay (NCI)

# Tested on: HT29 colon
# test method notes: NCI-60 one-dose screen, 48 h
# reported conditions: 10 µM unless noted
This is part of a sample that, as a whole, favours compounds with a hit. Of some 83,000 tested, about 20% had one in any assay. Activity calls are given as the source filed them. How the source made its calls: active means growth percent below 10; inactive means the rest.
Write down one outcome, taken from active, inactive

Reference set (10 entries):
[O-][n+]1c2ccccc2[n+]([O-])c2c3ccccc3[nH]c21: inactive
Cn1cc(-c2cc3ncnc(Nc4ccc(CC(=O)Nc5cc(C(C)(C)C)on5)cc4)c3s2)cn1: inactive
CCCCCCn1c(-c2ccc(C(=O)O/N=C(\N)c3ccc4c(c3)OCO4)cc2)nc(-c2ccccc2)c1-c1ccccc1: inactive
O=c1ccc(N=Nc2ccc([N+](=O)[O-])cc2)ccc1O: inactive
C/C(=C\C(=O)c1ccc(Cl)cc1)c1ccc(Cl)cc1: inactive
COc1ccc(-c2c(C(=O)NS(C)(=O)=O)n(Cc3cccc(C(F)(F)F)c3)c3ccccc23)cc1: inactive
CCCCN(C)N=Nc1ccc(C(N)=O)cc1: inactive
O=C(/C=C/c1sc(Cl)nc1Cl)c1ccc(Br)cc1: inactive
CC(=O)Oc1ccccc1C(=O)N=C1[Se]CCCN1C(=O)c1ccccc1OC(C)=O: inactive
NS(=O)(=O)c1ccc(-n2nc(-c3ccc(Cl)cc3)c3ccccc3c2=O)cc1: inactive

Would you mind telling me which call this test gave `Cn1cc(C(=O)c2nc(-c3cn(C)c4ccc(F)cc34)no2)c2cc(F)ccc21` ?
inactive

I would be grateful if you could indicate the recorded call for `Cc1nc2ccccc2n1CC1C(=O)NC(=O)NC1=O` .
inactive

Which outcome did this test record for the compound O=C1c2ccccc2NC(n2sc3ccccc3c2=O)N1c1ccccc1 (stereo unspecified) ?
inactive

Recorded test outcome, item N#CC1=C(N)Oc2c(sc3c(Br)cccc23)C1c1ccc(Br)cc1 (stereo unspecified)
active

Recorded test outcome, item `O=C(CCN1C(=O)/C(=C/c2ccc(O)cc2)SC1=S)Nc1ccccc1`
inactive

// param item: `CCCCCCNC(=O)Oc1ccc(/C(=C(\C)c2ccc(Cl)cc2)c2ccc(OCCN3CCCCC3)cc2)cc1` ; yields the recorded call
active
